biological target: SETD2(1434-1711) (Homo sapiens); construct: SETD2 (1434-1711) Assay; catalogue N/A; experiment: SETD2 (1434-1711) assay; format: biochemical; conditions: read-out: SETD2 (1434-1711)
pIC50: −log10 of the molar value.
Property measured: pIC50

Field: example entries. Status: answers known.
Molecule	Property measured	Measurement
Cc1ccc(F)c2cc(C(=O)Nc3cccc(N4CCC5(CCN(CC(F)F)CC5)C4)c3)[nH]c12	pIC50	7.00
COC(=O)CC(NC(=O)c1cc2cccc(C)c2[nH]1)c1cccc(OC)c1 (stereo not shown)	pIC50	4.56

[A] CC(=O)N1CCN([C@@H]2CCC[C@@H](NC(=O)c3cc4c(F)ccc(C)c4[nH]3)C2)CC12CC2
[B] COC(=O)CC(NC(=O)c1cc2cccc(C)c2[nH]1)c1ccco1 (stereo not shown)
Pick the one with the larger pIC50: A vs B Pick one; state its label.
A
(A: 6.05, B: 4.65)

----------
molecular target: SETD2(1434-1711) (Homo sapiens, UniProt Q9BYW2); construct: SETD2 (1434-1711) Assay; catalogue N/A; assay: SETD2 (1434-1711) assay; type: biochemical; details: read-out: SETD2 (1434-1711)
Property measured: IC50 (nM)

Molecule	Property measured	Measurement
Cc1ccc(F)c2cc(C(=O)Nc3ccc4cnc(CN5CCN(C)CC5)cc4c3)[nH]c12 [compound 409]	IC50	100

[a] Cc1cccc2cc(C(=O)Nc3ccc4cnc(CN5CCN(C)CC5)cc4c3)[nH]c12 [compound 465]
[b] Cc1cccc2cc(C(=O)NC(CO)c3ccccc3)[nH]c12 (stereo not drawn) [compound 705]
Pick the one with the larger IC50: a vs b Pick one; state its label.
b

----------
target: SETD2(1434-1711) (Homo sapiens, UniProt Q9BYW2); construct: SETD2 (1434-1711) Assay; catalogue N/A; assay: SETD2 (1434-1711) assay; assay type: biochemical; conditions: read-out: SETD2 (1434-1711)
pIC50: −log10 of the molar value.
Property measured: pIC50

Field: example entries. Status: answers known.
Compound	pIC50
CCNC(=O)N1CCN(C2CCCC(NC(=O)c3cc4c(F)ccc(C)c4[nH]3)C2)CC1 (centres unmarked) [compound 948]	8.00
CN[C@H]1CCN([C@@H]2CCC[C@@H](NC(=O)c3cc4c(F)ccc(C)c4[nH]3)C2)C1 [compound 1088]	5.66
Cc1ccc(F)c2cc(C(=O)N[C@@H]3CCC[C@@H](c4ccncn4)C3)[nH]c12 [compound 1064]	5.64

[1] C=Cc1ccc(C)c2[nH]c(C(=O)NC(CCC(=O)N3CCOCC3)c3ncccc3C)cc12 (centres unmarked) [compound 431]
[2] CCC(=O)N1CCN([C@@H]2CCC[C@@H](NC(=O)c3cc4c(F)ccc(C)c4[nH]3)C2)CC1 [compound 840]
[3] Cc1ccc(F)c2cc(C(=O)Nc3cccc(-c4nnc(CO)s4)c3)[nH]c12 [compound 107]
Put the compounds in ascending order of pIC50. To answer, write out the labels according to the requested order.
1, 2, 3

----------
Molecular target: SETD2(1434-1711) (Homo sapiens, UniProt Q9BYW2)
Construct: SETD2 (1434-1711) Assay; catalogue N/A
Sequence (Q9BYW2 1434-1711): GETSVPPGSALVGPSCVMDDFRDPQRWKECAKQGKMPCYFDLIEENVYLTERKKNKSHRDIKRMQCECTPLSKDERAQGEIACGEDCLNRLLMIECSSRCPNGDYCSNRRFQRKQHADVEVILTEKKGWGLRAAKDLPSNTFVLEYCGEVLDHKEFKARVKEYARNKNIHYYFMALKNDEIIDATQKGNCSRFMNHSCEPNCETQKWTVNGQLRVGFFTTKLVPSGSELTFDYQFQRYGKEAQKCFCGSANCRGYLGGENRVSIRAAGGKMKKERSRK
Assay: SETD2 (1434-1711) assay
Assay type: biochemical
Conditions: read-out: SETD2 (1434-1711)
pIC50: −log10 of the molar value.
Property measured: pIC50

Field: example entries. Status: answers known.
Molecule	pIC50
CCN(C(=O)CO)C1CCN(C2CCCC(NC(=O)c3cc4c(F)ccc(C)c4[nH]3)C2)C1 (stereo not shown) [compound 1053]	7.52
Cc1ccc(F)c2cc(C(=O)N[C@@H]3CCC[C@H](N4CCN(C(=O)NC5CCOCC5)CC4)C3)[nH]c12	7.52
Cc1ccc(F)c2cc(C(=O)NC3CCCC(N4CCN5C(=O)CN(C)C(=O)C5C4)C3)[nH]c12 (stereo not shown) [compound 1104]	7.40
CC(=O)N1CCC2(CC1)CN(c1cc(F)cc(NC(=O)c3cc4c(F)ccc(C)c4[nH]3)c1)C2	8.00
Cc1ccc(F)c2cc(C(=O)NC3CCCC(N4CCN(C(=O)OC(C)C)CC4)C3)[nH]c12 (stereo not shown) [compound 997]	8.00

[P] CCNC(=O)N1CCN(C2CCCC(NC(=O)c3cc4c(F)ccc(C)c4[nH]3)C2)CC1 (stereo not shown) [compound 949]
[Q] Cc1ccc(F)c2cc(C(=O)NC3CCCC(N4CCN(C(=O)OC5CCOCC5)CC4)C3)[nH]c12 (stereo not shown)
[R] Cc1cc(Cn2cc[nH]c2=O)cnc1C(NC(=O)c1cc2c(F)ccc(C)c2[nH]1)C1CC1 (stereo not shown)
[S] CCN(CC)CCCC(NC(=O)c1cc2cccc(C)c2[nH]1)c1ncccc1C (stereo not shown)
Put the molecules in ascending order of pIC50. To answer, write out the labels according to the requested order.
S, Q, P, R
(S: 4.51, Q: 5.82, P: 6.15, R: 6.70)

----------
molecular target: SETD2(1434-1711) (Homo sapiens, UniProt Q9BYW2); construct: SETD2 (1434-1711) Assay; catalogue N/A; experiment: SETD2 (1434-1711) assay; assay type: biochemical; conditions: read-out: SETD2 (1434-1711)
pIC50: −log10 of the molar value.
Property measured: pIC50

Compound	Property measured	Measurement
CCNCC1CN(c2cccc(NC(=O)c3cc4c(F)ccc(C)c4[nH]3)c2)CCO1 (stereo not shown)	pIC50	8.00
CC(=O)N1CCC2(CC1)CCN(c1cc(F)cc(NC(=O)c3cc4c(F)ccc(C)c4[nH]3)c1)C2	pIC50	8.10
Cc1cccc2cc(C(=O)N[C@H]3C[C@@H]4CC[C@H]3CN4C(=O)CCCN)[nH]c12	pIC50	4.96
Cc1cccc2cc(C(=O)N[C@H]3CC[C@H](C)CC3)[nH]c12	pIC50	5.42
Cc1ccc(F)c2cc(C(=O)Nc3cccc(N4CCC5(CCCN5)CC4)c3)[nH]c12	pIC50	8.30
Cc1ccc(F)c2cc(C(=O)NC3CCCC(N4CCN(C(=O)CO)C(C(F)(F)F)C4)C3)[nH]c12 (stereo not shown) [compound 1173]	pIC50	7.40
Cc1ccc(F)c2cc(C(=O)NC3CCCC(N4CCC(N(C)C(=O)C(C)(C)O)C4)C3)[nH]c12 (stereo not shown) [compound 1146]	pIC50	7.40
CC(=O)N1CCN(C2CC(NC(=O)c3cc4c(F)ccc(C)c4[nH]3)CN(C)C2)CC1 (stereo not shown) [compound 360]	pIC50	5.92

[a] Cc1ccc(F)c2cc(C(=O)Nc3cccc(N4CCNC(=O)C4)c3)[nH]c12
[b] CC(=O)N1CCC2CN(c3cc(F)cc(NC(=O)c4cc5c(F)ccc(C)c5[nH]4)c3)CC21 (stereo not shown)
Select one. Lower pIC50: a or b Pick one; state its label.
a
(a: 7.52, b: 8.15)

[a] Cc1cccc2cc(C(=O)NCc3ccccc3N3CCN(C)CC3)[nH]c12
[b] Cc1cccc2cc(C(=O)NC(C)c3ccc(-n4cccn4)cc3)[nH]c12 (stereo not shown)
[c] Cc1ccc(F)c2cc(C(=O)Nc3cc(C(F)F)cc(N4CCC(N(C)C)CC4)c3)[nH]c12
[d] Cc1ccc(F)c2cc(C(=O)Nc3cc(N4CCN(C)CC4)n4cncc4c3)[nH]c12
// sort entries: pIC50, high to low To answer, write out the labels according to the requested order.
c, d, a, b

----------
molecular target: SETD2(1434-1711) (Homo sapiens); construct: SETD2 (1434-1711) Assay; catalogue N/A; assay: SETD2 (1434-1711) assay; assay type: biochemical; conditions: read-out: SETD2 (1434-1711)
Property measured: IC50 (µM)

Field: example entries. Status: answers known.
Molecule	IC50, µM
CC(=O)N1CC2CCC(C1)N2[C@@H]1CCC[C@@H](NC(=O)c2cc3c(F)ccc(C)c3[nH]2)C1	3
CC(=O)N1CCN([C@H]2CCC[C@@H](NC(=O)c3cc4c(F)ccc(C)c4[nH]3)C2)C[C@@H]1CO	0.01
Cc1ccc(F)c2cc(C(=O)NC3CCCC(N4CCC(N(C)C(=O)C5CC5)C4)C3)[nH]c12 (stereo not shown) [compound 971]	0.01
Cc1cc(CN2CCN(C)CC2)cnc1C(NC(=O)c1cc2cccc(C)c2[nH]1)C1CC1 (stereo not shown)	2.1
Cc1ccc(F)c2cc(C(=O)Nc3cccc(N4CCN(C)CC4c4ccccc4)c3)[nH]c12 (stereo not shown)	1.6

[1] Cc1ccc(F)c2cc(C(=O)Nc3cccc4c3cnn4[C@H]3CC[C@H](N(C)C)CC3)[nH]c12
[2] Cc1ccc(F)c2cc(C(=O)Nc3cccc(N4CC[C@H](N(C)C)C4)c3)[nH]c12
[3] Cc1ccc(F)c2cc(C(=O)Nc3cc(CF)cc(N4CCC(N(C)C)CC4)c3)[nH]c12
[4] Cc1ccc(F)c2cc(C(=O)Nc3cccc(-c4ccnn4C)c3)[nH]c12
[5] Cc1cccc2cc(C(=O)Nc3ccccc3C3CCC(=O)N3)[nH]c12 (stereo not shown)
// sort entries: IC50, high to low To answer, write out the labels according to the requested order.
5, 4, 3, 2, 1

[A] Cc1oncc1CNC(=O)c1cc2cccc(C)c2[nH]1
[B] Cc1ccc(F)c2cc(C(=O)N[C@@H]3CCC[C@H](N4CCN5C(=O)COCC5C4)C3)[nH]c12 (stereo partly shown)
[C] Cc1ccc(F)c2cc(C(=O)Nc3cccc(N4CCC(CN(C)C)CC4)c3)[nH]c12
[D] CCN(C(=O)CO)C1CCN(C2CCCC(NC(=O)c3cc4c(F)ccc(C)c4[nH]3)C2)C1 (stereo not shown) [compound 1130]
Put the molecules in ascending order of IC50. To answer, write out the labels according to the requested order.
B, C, D, A
